Origin of measurements: paper PMC6348443

Each entry below lists one item and its recorded Emax value.
Biological target: DOR (Homo sapiens, UniProt P41143)
Construct: host or cells: CHO (CHO-hDOR)
Sequence (P41143 whole entry): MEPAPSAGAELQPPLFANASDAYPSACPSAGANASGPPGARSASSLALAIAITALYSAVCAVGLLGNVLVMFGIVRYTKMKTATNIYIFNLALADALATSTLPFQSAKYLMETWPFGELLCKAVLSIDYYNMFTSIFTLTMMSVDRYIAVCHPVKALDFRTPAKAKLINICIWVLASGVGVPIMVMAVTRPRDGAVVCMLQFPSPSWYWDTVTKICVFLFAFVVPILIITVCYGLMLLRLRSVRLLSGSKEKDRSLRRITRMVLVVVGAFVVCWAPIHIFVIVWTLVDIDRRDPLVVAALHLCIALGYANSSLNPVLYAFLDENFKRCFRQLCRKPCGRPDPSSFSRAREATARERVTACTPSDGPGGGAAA
Experiment: [35S]GTPγS binding assay, CHO-hDOR membranes
Format: biochemical
Details: relative to reference full agonist DPDPE; read-out: DOR % stim.
# output: bare number, implied unit %

[in] Request the reported Emax associated with CO[C@@]12CC[C@@H](N[C@H](Cc3ccccc3)C(=O)O)[C@@H]3Oc4c(O)ccc5c4[C@@]31CCN(C)[C@@H]2C5 [Compound 17b]
[out] 96

[in] Request the reported Emax associated with CO[C@@]12CC[C@H](N[C@@H](CCCCN)C(=O)O)[C@@H]3Oc4c(O)ccc5c4[C@@]31CCN(C)[C@@H]2C5
[out] 106

[in] Request the reported Emax associated with CO[C@@]12CC[C@@H](N[C@@H](CCC(=O)O)C(=O)O)[C@@H]3Oc4c(O)ccc5c4[C@@]31CCN(C)[C@@H]2C5.Cl.Cl [Compound 14b]
[out] 101

[in] Request the reported Emax associated with CO[C@@]12CC[C@H](NC(C)C(=O)O)[C@@H]3Oc4c(O)ccc5c4[C@@]31CCN(C)[C@@H]2C5 (stereo in doubt) [Compound 15a]
[out] 106

[in] Request the reported Emax associated with CO[C@@]12CC[C@@H](N[C@H](C(=O)O)C3CCCCC3)[C@@H]3Oc4c(O)ccc5c4[C@@]31CCN(C)[C@@H]2C5 [Compound 18b]
[out] 96

[in] Request the reported Emax associated with CO[C@@]12CC[C@@H](N[C@H](C(=O)N[C@@H](Cc3ccc(O)cc3)C(=O)O)C(C)C)[C@@H]3Oc4c(O)ccc5c4[C@@]31CCN(C)[C@@H]2C5 [Compound 22b]
[out] 89

[in] Request the reported Emax associated with CO[C@@]12CC[C@H](N[C@@H](CC(N)=O)C(=O)O)[C@@H]3Oc4c(O)ccc5c4[C@@]31CCN(C)[C@@H]2C5 [Compound 11a]
[out] 106

[in] Request the reported Emax associated with CO[C@@]12CC[C@H](N[C@@H](C(=O)O)C(C)C)[C@@H]3Oc4c(O)ccc5c4[C@@]31CCN(C)[C@@H]2C5 [Compound 16a]
[out] 93

[in] Request the reported Emax associated with CO[C@@]12CC[C@@H](NCCCC(=O)O)[C@@H]3Oc4c(O)ccc5c4[C@@]31CCN(C)[C@@H]2C5 [Compound 21b]
[out] 103

[in] Request the reported Emax associated with CO[C@@]12CCC(N[C@@H](CCC(=O)O)C(=O)O)[C@@H]3Oc4c(O)ccc5c4[C@@]31CCN(C)[C@@H]2C5 (stereo in doubt) [Compound 14a]
[out] 98

[in] Request the reported Emax associated with CO[C@@]12CC[C@H](N[C@H](C(=O)N[C@@H](Cc3ccc(O)cc3)C(=O)O)C(C)C)[C@@H]3Oc4c(O)ccc5c4[C@@]31CCN(C)[C@@H]2C5 [Compound 22a]
[out] 88

[in] Request the reported Emax associated with CO[C@@]12CC[C@H](NCCC(=O)O)[C@@H]3Oc4c(O)ccc5c4[C@@]31CCN(C)[C@@H]2C5 [Compound 20a]
[out] 97
